List of IC50 tested on UniProtKB P35968.
Sequence (P35968 whole entry): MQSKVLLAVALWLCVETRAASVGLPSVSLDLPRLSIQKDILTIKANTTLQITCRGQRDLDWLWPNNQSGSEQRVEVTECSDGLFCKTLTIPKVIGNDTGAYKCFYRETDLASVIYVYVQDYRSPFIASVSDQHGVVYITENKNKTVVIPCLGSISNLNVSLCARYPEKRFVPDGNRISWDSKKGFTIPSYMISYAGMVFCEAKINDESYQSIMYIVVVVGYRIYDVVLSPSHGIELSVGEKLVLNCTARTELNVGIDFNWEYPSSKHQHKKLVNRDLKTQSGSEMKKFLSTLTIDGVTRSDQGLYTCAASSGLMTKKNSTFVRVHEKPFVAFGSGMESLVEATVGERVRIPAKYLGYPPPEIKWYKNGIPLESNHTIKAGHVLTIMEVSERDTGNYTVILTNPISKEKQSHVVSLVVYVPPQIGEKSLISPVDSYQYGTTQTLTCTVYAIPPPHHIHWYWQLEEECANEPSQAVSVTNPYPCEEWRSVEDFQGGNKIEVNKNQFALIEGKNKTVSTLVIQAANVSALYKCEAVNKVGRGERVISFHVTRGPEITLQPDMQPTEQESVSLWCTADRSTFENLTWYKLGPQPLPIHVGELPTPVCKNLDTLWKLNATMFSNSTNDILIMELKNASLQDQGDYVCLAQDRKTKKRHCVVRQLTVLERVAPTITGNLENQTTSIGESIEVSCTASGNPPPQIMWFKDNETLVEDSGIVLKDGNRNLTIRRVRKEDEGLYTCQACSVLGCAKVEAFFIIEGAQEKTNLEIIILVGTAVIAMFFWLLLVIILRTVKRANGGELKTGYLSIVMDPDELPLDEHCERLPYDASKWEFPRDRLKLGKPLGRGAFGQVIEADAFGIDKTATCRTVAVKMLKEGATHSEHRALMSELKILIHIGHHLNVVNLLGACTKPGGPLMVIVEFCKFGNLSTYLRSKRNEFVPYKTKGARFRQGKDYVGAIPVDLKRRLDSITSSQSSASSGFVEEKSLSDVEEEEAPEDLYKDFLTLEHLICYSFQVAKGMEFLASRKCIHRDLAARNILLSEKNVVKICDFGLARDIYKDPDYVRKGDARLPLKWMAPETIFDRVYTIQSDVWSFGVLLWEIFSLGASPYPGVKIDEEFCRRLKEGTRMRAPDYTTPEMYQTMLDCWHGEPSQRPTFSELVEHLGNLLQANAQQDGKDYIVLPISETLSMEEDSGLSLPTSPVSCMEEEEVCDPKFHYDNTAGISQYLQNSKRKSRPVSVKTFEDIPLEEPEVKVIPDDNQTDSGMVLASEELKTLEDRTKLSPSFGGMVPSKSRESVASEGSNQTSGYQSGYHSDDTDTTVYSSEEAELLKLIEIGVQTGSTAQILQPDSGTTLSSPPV

> print(dat)
                                item.smiles  readout.name   result
1  Nc1cc(-c2ccc(NC(=O)Nc3cccc(C(F)(F)F)c3)cc2)on1          IC50  > 10 µM

We now examine a further compound.
Write down the reported IC50 of CC(C)(C)c1cc(NC(=O)Nc2ccc(-c3cc(N)no3)cc2)no1 , test system: UniProtKB P35968.
> 10 µM
